# experimental.target: recombinant hemagglutinin-tagged ATX (ATX-HA) (Homo sapiens, UniProt Q13822)
# assay.info: ATX assay, hydrolysis of fluorogenic substrate FS-3
# condition.notes: read-out: ATX inhibition IC50; FS-3 substrate; 0.01 to 10 μmol/L
Listing: pIC50 of selected compounds
On this scale, pIC50 is minus log10 of a concentration expressed in M (mol/L).

INSERT INTO assay_data (molecular_string, value_measured) VALUES
  ('CCCCCCCCCCCCCCCC(=O)OC[C@@H](O)C[C@@H](Br)P(=O)(O)O', 6.78);

# ---- query compound ----
Asked: What pIC50 appears in the records for this compound with recombinant hemagglutinin-tagged ATX (ATX-HA) (Homo sapiens, UniProt Q13822)? CCCCCCCCCCCCCCCC(=O)OC[C@@H](O)C[C@H](Br)P(=O)(O)O
Given back: 7.66

====

List of pKi values.
# experimental.target: UniProt Q9HBW0
# Sequence (Q9HBW0 whole entry): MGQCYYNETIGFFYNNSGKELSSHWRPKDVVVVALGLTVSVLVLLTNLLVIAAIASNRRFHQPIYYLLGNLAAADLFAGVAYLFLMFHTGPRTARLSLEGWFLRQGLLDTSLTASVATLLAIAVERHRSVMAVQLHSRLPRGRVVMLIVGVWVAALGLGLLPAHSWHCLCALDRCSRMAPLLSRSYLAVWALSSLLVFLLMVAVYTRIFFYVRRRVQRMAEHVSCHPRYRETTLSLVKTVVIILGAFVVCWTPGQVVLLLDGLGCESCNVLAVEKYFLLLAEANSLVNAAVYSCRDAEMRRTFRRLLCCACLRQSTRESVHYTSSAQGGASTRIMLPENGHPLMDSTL
Convention used: pKi is expressed as -log10 of the molar concentration.

Consider the worked cases shown below.
INSERT INTO measurements (molecule, readout_label, value_measured) VALUES
  ('CCCCCCCCCCCCCCCC(=O)OC[C@@H](O)C[C@H](Br)P(=O)(O)O', 'pKi', 6.62),
  ('CCCCCCCCCCCCCCCC(=O)OC[C@@H](O)C[C@@H](Br)P(=O)(O)O', 'pKi', 6.60);

Asked: So what does the record say about pKi for CCCCCCCCCCCCCCCC(=O)OCC(O)CC(Br)P(=O)(O)O (stereo not drawn) [compound 1, palmitoyl α-bromomethylenephosphonate] ?
Given back: 6.61

====

# experimental.target: UniProt Q92633
# Sequence (Q92633 whole entry): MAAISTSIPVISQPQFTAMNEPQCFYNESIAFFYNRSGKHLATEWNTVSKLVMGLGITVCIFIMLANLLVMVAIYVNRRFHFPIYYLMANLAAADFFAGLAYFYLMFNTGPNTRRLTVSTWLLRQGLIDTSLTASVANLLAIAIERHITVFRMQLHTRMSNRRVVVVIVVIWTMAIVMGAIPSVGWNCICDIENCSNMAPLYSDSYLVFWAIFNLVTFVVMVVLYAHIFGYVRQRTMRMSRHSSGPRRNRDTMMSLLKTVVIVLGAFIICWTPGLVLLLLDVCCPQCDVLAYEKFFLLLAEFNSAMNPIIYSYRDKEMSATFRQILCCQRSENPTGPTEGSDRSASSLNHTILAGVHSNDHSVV
readout.label: pKi
Give only the number. pKi is defined as minus log10 of concentration in molar units.

INSERT INTO measurements (molecule, experimental_target, value_measured) VALUES
  ('CCCCCCCCCCCCCCCC(=O)OCC(O)CC(Br)P(=O)(O)O (stereo not drawn) [compound 1, palmitoyl α-bromomethylenephosphonate]', 'UniProt Q92633', 6.09),
  ('CCCCCCCCCCCCCCCC(=O)OC[C@@H](O)C[C@@H](Br)P(=O)(O)O [1a]', 'UniProt Q92633', 6.56);

Next item in the queue.
Asked: Request body: readout pKi, system UniProt Q92633, query CCCCCCCCCCCCCCCC(=O)OC[C@@H](O)C[C@H](Br)P(=O)(O)O [1b] . Return the value.
Given back: 6.12

====

# experimental.target: human LPA3 (Homo sapiens, UniProt Q9UBY5)
# Sequence (Q9UBY5 whole entry): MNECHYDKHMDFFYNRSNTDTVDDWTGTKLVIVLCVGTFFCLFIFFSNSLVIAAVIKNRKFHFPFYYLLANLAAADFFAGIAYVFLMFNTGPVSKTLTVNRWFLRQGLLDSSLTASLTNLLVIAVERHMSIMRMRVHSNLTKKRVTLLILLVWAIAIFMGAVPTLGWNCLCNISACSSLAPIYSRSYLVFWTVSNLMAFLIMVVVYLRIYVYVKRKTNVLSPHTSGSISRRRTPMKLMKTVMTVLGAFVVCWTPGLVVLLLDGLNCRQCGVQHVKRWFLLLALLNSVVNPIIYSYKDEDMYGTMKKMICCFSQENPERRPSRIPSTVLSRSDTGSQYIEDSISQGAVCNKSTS
# assay.info: Ca2+ mobilization assay, LPA3 expressed in RH7777 cells
# condition.notes: read-out: LPA3 antagonist IC50; Ca2+ mobilization, RH7777 cells
readout.label: IC50 (µM)
// note: answer is a bare numeric in µM

Asked: What IC50 value was documented for this compound, CCCCCCCCCCCCCCCC(=O)OC[C@@H](O)C[C@@H](Br)P(=O)(O)O [1a] ?
Given back: 4.44

Asked: Please answer likewise for CCCCCCCCCCCCCCCC(=O)OC[C@@H](O)C[C@H](Br)P(=O)(O)O [1b]
Given back: 2.09

====

A set of molecules tested on human LPA3 (Homo sapiens, UniProt Q9UBY5), with measured pKi:
The scale used: pKi is minus the common logarithm of the concentration in molar units.

INSERT INTO measurements (molecular_string, value_measured) VALUES
  ('CCCCCCCCCCCCCCCC(=O)OC[C@@H](O)C[C@H](Br)P(=O)(O)O', 6.21);

Now look at this one.
Asked: Endpoint output: pKi of CCCCCCCCCCCCCCCC(=O)OC[C@@H](O)C[C@@H](Br)P(=O)(O)O . Value?
Given back: 5.74

Where do the numbers come from? From paper PMC3446773.
